- Subject of test: T1, gp41-5 (HIV)
- T1 construct: also called gp41-5 protein construct; five-helix bundle protein
- Protocol: competition FP; displacement of Flu-C38 from gp41-5
[ ]: non-standard residue; d: D form. APC = trans-3-aminopyrrolidine-4-carboxylic acid; ACPC = trans-2-aminocyclopentanecarboxylic acid; β3hT = C[C@@H](O)[C@H](N)CC(=O)O; β3hE = N[C@@H](CCC(=O)O)CC(=O)O
Some binders, each annotated with its measured pKi.
# pKi = -log10(concentration in molar units)

Use the examples below as a reference point.
Ac-TTWEAWD[APC]AIA[β3hE]YA[ACPC]RIE[ACPC]LI[APC]AAQ[β3hE]QQ[β3hE]KNE[ACPC]AL[APC]EL-NH2 (not fully specified, also called compound 12; peptide 12) [chimeric α+α/β foldamer 12] = 8.10
Ac-[β3hT]TWE[ACPC]WD[APC]AIA[β3hE]YAARIEALIRAAQ[β3hE]QQ[β3hE]KNE[ACPC]AL[APC]EL-NH2 (not fully specified, also called compound 14) [chimeric α+α/β foldamer 14] = 8.85
Ac-[β3hT]TWE[ACPC]WD[APC]AIA[β3hE]YA[ACPC]RIE[ACPC]LI[APC]AAQEQQEKNEAALREL-NH2 (not fully specified, also called compound 15) [chimeric α+α/β foldamer 15] = 9.70

Alright, here's another binder for you.
Lab note: measured pKi of Ac-TTWEAWDRAIA[β3hE]YA[ACPC]RIE[ACPC]LI[APC]AAQ[β3hE]QQ[β3hE]KNE[ACPC]AL[APC]EL-NH2 (not fully specified, the difference must lie in β3-residues whose bold type is lost; also called compound 13; peptide 13) [chimeric α+α/β foldamer 13] was 9.10
